Biological target: T1, human Ang-2 V345M (human, UniProt O15123 19-496)
T1 sequence: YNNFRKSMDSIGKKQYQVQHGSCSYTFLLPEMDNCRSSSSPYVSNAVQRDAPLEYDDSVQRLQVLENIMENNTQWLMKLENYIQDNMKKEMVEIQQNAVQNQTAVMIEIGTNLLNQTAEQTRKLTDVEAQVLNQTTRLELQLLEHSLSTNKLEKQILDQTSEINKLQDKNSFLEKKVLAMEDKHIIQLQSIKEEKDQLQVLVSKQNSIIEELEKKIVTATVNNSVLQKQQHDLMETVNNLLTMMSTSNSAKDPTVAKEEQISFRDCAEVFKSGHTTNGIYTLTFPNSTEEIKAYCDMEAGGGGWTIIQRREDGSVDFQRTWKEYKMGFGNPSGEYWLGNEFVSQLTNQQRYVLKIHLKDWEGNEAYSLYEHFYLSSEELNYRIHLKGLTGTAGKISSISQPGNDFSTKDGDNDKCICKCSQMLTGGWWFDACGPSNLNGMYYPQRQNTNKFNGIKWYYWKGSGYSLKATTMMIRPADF
Assay: ELISA
Attribute Measured: % of binding to human Ang-2 (%)
State the answer as a number, implicitly in %.

Examples with answers:
Binder: mAb 3.31.2 (antibody, V domains shown, Human hybridoma IgG (XenoMouse); also called x3.31) VH: EVQLVESGGGLVQPGGSLRLSCAASGFTFSSYWMSWVRQAPGKGLEWVANIKQDGSDKYYVDSVKGRFTISRDNAKNSLYLRMNSLRAEDTAVFYCARDMGSGWFDYWGQGTLVTVSS VL: EVVMTQSPATLSVSPGERATLSCRASQSVGSNLAWYQQKPGQAPRLLIYGASTRATGIPARFSGSGSGTEFTLTISSLQSEDFAVYCCQQYNHWWTFGQGTKVEIKR
% of binding to human Ang-2 [%]: 100
//
Binder: mAb 5.39.1 (antibody, V domains shown, Human hybridoma IgG (XenoMouse); also called x5.39) VH: QVQLVQSGAEVTKPGASVKVSCKASGYTFTAYHMYWVRQAPGQGLEWMGWINPNSGGTNYAQKFQGRVTMTRDTSISTAYMELSRLRSDDSPVYYCARDQGIAAAGPFDYWGQGTLVTVSS VL: EIVMTQSPATLSVSPGDRATLSCRASQSVSSNFAWYQQKPGQAPRLLIYGSSTRATGIPARFSGSGSGTEFTLTISSLQSEDFAVYYCQQYHYWWTFGQGTKVEFKR
% of binding to human Ang-2 [%]: 100
//
Binder: mAb 5.52.1 (antibody, V domains shown, Human hybridoma IgG (XenoMouse); the line 5.52 has entries of its own (347, 349; light chain L2) that differ from the clone 5.52.1 (L5); also called x5.52) VH: QVQLVESGGGVVQPGRSLRLSCAASGFTFSSYGMHWVRQAPGKGLEWVAVRWYDESNKYYADSVKGRFTISRDNSKNTLYLQMNSLRAEDTAVYYCARDPFETGTTFDYWGQGTLVTVSS VL: DIQMTQSPSSVSASVGDRVTITCRASQGISSWLAWYQQKPGKAPKLLIYAVSSLESGVPSRFSGSGSGTDFTLTISSLQPEDFATYYCQQALTFGGGTKVEIKR
% of binding to human Ang-2 [%]: 100

Next up:
# input Write down % of binding to human Ang-2 measured for item mAb 5.35.1 (antibody, V domains shown, Human hybridoma IgG (XenoMouse); also called x5.35) VH: EVQLVESGGGVVRPGGSLRLSCTTSGFTFDDYGMSWVRQAPGKGLEWVSGINWNGGSTVYADSVKGRFTISRDSAKNSLYLQMNSLRAEDTALYHCARNKQWLWYFDLWGRGTLVTVSS VL: EIVMTQSPATLSVSPGERATLSCRASQSVSSNLAWYQQKPGQAPRLLIYGASTRATGIPARFSGSGSGTEFTLTISSLQSEDFAVYYCEQYNNWPLTFGGGTKVEIKR
# output 100
